tested on: Crude diglycosidase; assay: Examination of pH in the conversion into isoflavone aglycons by diglycosidase using soybean materials; assay type: biochemical, Penicillium multicolor IAM7153; set-up: concentration or dose not given beside the values; settings: pH7.8; heat treatment of enzyme: no; reaction time 6 h
OUTCOME MEASURE: Decomposition efficiency of genistin family in defatted soybean (%)

Here's what some known entries look like.
- O=C(O)CC(=O)OC[C@H]1O[C@@H](Oc2cc(O)c3c(=O)c(-c4ccc(O)cc4)coc3c2)[C@H](O)[C@@H](O)[C@@H]1O [malonylgenistin, 6″-O-malonylgenistin]: 42.2
- CC(=O)OC[C@H]1O[C@@H](Oc2cc(O)c3c(=O)c(-c4ccc(O)cc4)coc3c2)[C@H](O)[C@@H](O)[C@@H]1O [acetylgenistin, 6″-O-acetylgenistin]: 0.7

P. O=c1c(-c2ccc(O)cc2)coc2cc(O[C@@H]3O[C@H](CO)[C@@H](O)[C@H](O)[C@H]3O)cc(O)c12 [genistin]
Q. O=c1c(-c2ccc(O)cc2)coc2cc(O)cc(O)c12 [genistein]
Ask: // returns P or Q , whichever has the lower Decomposition efficiency of genistin family in defatted soybean Which one? Tell me its label.
Reply: P

* * *

Test system: Crude diglycosidase
Assay: Examination of temperature in the conversion into isoflavone aglycons by diglycosidase using soybean materials
Type: biochemical, Penicillium multicolor IAM7153
Design: concentration or dose not given beside the values
Conditions: 45° C., heat treatment of enzyme no, reaction time 1 h
Procedure: Into 400 μL of 20 mM acetate buffer of pH 4.0 was suspended 50 mg of each of various soybean materials (roasted soy flour (manufactured by Fuji Shokuryo K.K.), soymilk (manufactured by Gitoh Shokuhin K.K.), defatted soybean (manufactured by Fuji Seiyu K.K.), concentrated soybean protein (manufactured by Fuji Seiyu K.K.)), whereby a substrate solution was prepared. Crude diglycosidase was diluted with 20 mM acetate buffer of pH 4.0 to be the glycosidase activity of 1.88 AU/mL. […]
OUTCOME MEASURE: Decomposition efficiency of daidzin family in defatted soybean (%)

- O=C(O)CC(=O)OC[C@H]1O[C@@H](Oc2ccc3c(=O)c(-c4ccc(O)cc4)coc3c2)[C@H](O)[C@@H](O)[C@@H]1O: 45.5
- O=c1c(-c2ccc(O)cc2)coc2cc(O)ccc12: 54.5

* * *

tested on: Crude diglycosidase; experiment: Examination of substrate concentration in the conversion into isoflavone aglycons by diglycosidase using soybean materials; type: biochemical, Penicillium multicolor IAM7153; conditions: soymilk, substrate concentration 10%, heat treatment of enzyme no, reaction time 6 h;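 further: percent of the isoflavone family total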
OUTCOME MEASURE: Decomposition efficiency: ratio of each glycoside/aglycon within its isoflavone family (%)

Here's what some known entries look like.
- COc1cc2c(=O)c(-c3ccc(O)cc3)coc2cc1O: 95.8
- O=C(O)CC(=O)OC[C@H]1O[C@@H](Oc2cc(O)c3c(=O)c(-c4ccc(O)cc4)coc3c2)[C@H](O)[C@@H](O)[C@@H]1O: 4.8

A. COc1cc2c(=O)c(-c3ccc(O)cc3)coc2cc1O[C@@H]1O[C@H](COC(=O)CC(=O)O)[C@@H](O)[C@H](O)[C@H]1O
B. O=C(O)CC(=O)OC[C@H]1O[C@@H](Oc2ccc3c(=O)c(-c4ccc(O)cc4)coc3c2)[C@H](O)[C@@H](O)[C@@H]1O
Ask: // returns A or B , whichever has the lower Decomposition efficiency: ratio of each glycoside/aglycon within its isoflavone family Which one? Tell me its label.
Reply: A
